Form field: ≥50% loss of Myrcludex B binding to hNTCP (concentration) (one value per entry).
Target: human NTCP (Homo sapiens, UniProt Q14973)
Sequence (Q14973 1-349): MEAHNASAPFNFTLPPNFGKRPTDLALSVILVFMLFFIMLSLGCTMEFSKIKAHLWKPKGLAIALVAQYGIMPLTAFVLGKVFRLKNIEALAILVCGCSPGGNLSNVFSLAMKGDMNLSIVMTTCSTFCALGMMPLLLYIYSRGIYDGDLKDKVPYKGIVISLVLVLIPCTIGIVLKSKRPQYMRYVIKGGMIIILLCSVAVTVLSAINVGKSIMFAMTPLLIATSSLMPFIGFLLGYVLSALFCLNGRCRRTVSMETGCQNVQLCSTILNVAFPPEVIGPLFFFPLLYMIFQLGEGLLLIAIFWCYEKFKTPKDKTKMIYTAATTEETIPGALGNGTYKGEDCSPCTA
Experiment: Myrcludex B-FITC binding by confocal microscopy in U2OS-HA-hNTCP cells
Design: HA; expressed in transfected cells
Details: confocal microscopy; 0.2 µM Myrcludex B-FITC; drug 1, 10, 100 µM; concentration at which binding inhibited minimally 50%

Reference set (3 entries):
Cc1cc(-n2c(=O)[nH]c(=O)n(C)c2=O)ccc1Oc1ccc(SC(F)(F)F)cc1 [Toltrazuril] ... ≥10 µM
CS(=O)(=O)O.Cc1c(O)cccc1C(=O)N[C@@H](CSc1ccccc1)[C@H](O)CN1C[C@H]2CCCC[C@H]2C[C@H]1C(=O)NC(C)(C)C [Nelfinavir Mesylate Hydrate] ... ≥100 µM
Cc1c(Cl)cccc1Nc1ccccc1C(=O)O [Tolfenamic Acid, Tolfenamic acid] ... ≥100 µM

Attention now shifts to the item below.
Request: # returns recorded ≥50% loss of Myrcludex B binding to hNTCP (concentration) (system: human NTCP (Homo sapiens, UniProt Q14973)) for O=C(O)c1ccccc1Nc1cccc(C(F)(F)F)c1 [Flufenamic Acid, Flufenamic acid]
Result: ≥100 µM

----------
Biological target: human NTCP (Homo sapiens)
Experiment: Screening taurocholate uptake assay (96-well, [14C]taurocholate, 10 µM drug)
Settings: ranking over the functional and the binding screening assay
Structures can show the parent of a compound that is named as a salt.
// F strictly below 200 in Ranking score; T otherwise

Example cases with answers are listed next.
CN[C@@H]1[C@H](O)[C@H](NC)[C@H]2O[C@@]3(O)C(=O)C[C@@H](C)O[C@H]3O[C@@H]2[C@H]1O.Cl.Cl [Spectinomycin dihydrochloride] ... F
OCCN1CCN(CCCN2c3ccccc3Sc3ccc(C(F)(F)F)cc32)CC1 [Fluphenazine dihydrochloride] ... F
NC[C@H]1CC[C@H](C(=O)O)CC1 ... T
CC(=O)NCCCS(=O)(=O)O [Acamprosate calcium] ... F
CCOc1ccc2ccccc2c1C(=O)N[C@@H]1C(=O)N2[C@@H]1SC(C)(C)[C@@H]2C(=O)O [Nafcillin sodium salt monohydrate] ... T
CCC(=O)O[C@]1(C(=O)CCl)[C@@H](C)C[C@H]2[C@@H]3CCC4=CC(=O)C=C[C@]4(C)[C@@]3(F)[C@@H](O)C[C@@]21C [Clobetasol propionate] ... T
CCOC(=O)O[C@]1(C(=O)COC(=O)CC)CC[C@H]2[C@@H]3CCC4=CC(=O)C=C[C@]4(C)[C@H]3[C@@H](O)C[C@@]21C [Prednicarbate] ... F
O=C(COc1ccc(Cl)cc1)N1CCN(Cc2ccc3c(c2)OCO3)CC1 [Fipexide hydrochloride] ... F
Cc1cc(-n2c(=O)[nH]c(=O)n(C)c2=O)ccc1Oc1ccc(SC(F)(F)F)cc1 ... F
[H]/N=C(\N/C(=N/[H])NCCCCCCNC(=N)NC(=N)Nc1ccc(Cl)cc1)Nc1ccc(Cl)cc1 ... F

Request: Does Ranking score meet or surpass 200 for CC(=O)SCC(Cc1ccccc1)C(=O)NCC(=O)OCc1ccccc1 (stereo not drawn) ?
Result: T

Request: Now consider CN(C)CCCN1c2ccccc2Sc2ccc(Cl)cc21 [Chlorpromazine hydrochloride] and answer again.
Result: F

Request: Likewise for Cc1cc(=O)n(-c2ccccc2)n1C [Antipyrine] ?
Result: F

Request: Now consider C#C[C@]1(OC(C)=O)CC[C@H]2[C@@H]3CCC4=CC(=NO)CC[C@@H]4[C@H]3CC[C@@]21CC (mixture of isomers) [Norgestimate] and answer again.
Result: F

Request: Follow-up item: CC(CN(C)C)CN1c2ccccc2CCc2ccccc21.O=C(O)/C=C\C(=O)O (stereo not drawn) [Trimipramine maleate salt]
Result: F

----------
Target: UniProt:Q14973
Experiment: Screening taurocholate uptake assay (96-well, [14C]taurocholate, 10 µM drug)
Details: combined ranking from functional and binding assay B-scores
Structures can show the parent of a compound that is named as a salt.
Reported Ranking score values are given for each entry in this list.

Please review the entries below; each comes with its answer.
Cc1nnc(NS(=O)(=O)c2ccc(N)cc2)s1 ... 1054.65
O=C1CCC(N2C(=O)c3ccccc3C2=O)C(=O)N1 (centres unmarked) [Thalidomide] ... 964.883
Cc1cccc(C)c1NC(=O)C(C)N (centres unmarked) [Tocainide hydrochloride] ... 1036.23
Cl.c1cnc(N2CCN(Cc3ccc4c(c3)OCO4)CC2)nc1 [Piribedil hydrochloride] ... 974.49

Consider now this further compound.
Request: // Ranking score lookup, key: O=C(N/N=C/c1ccc([N+](=O)[O-])o1)c1ccc(O)cc1 [Nifuroxazide]
Result: 1088.47

----------
Target: UniProt Q14973
Assay: Screening fluorescent competitive Myrcludex B-FITC binding assay (96-well, 10 µM drug)
Conditions: Prestwick library screen, Myrcludex B-FITC binding, 10 µM drug
Where a name gives a salt, the structure may show the parent alone.
Decision: B-score binding assay compared against -0.03; not below it gives 1 (yes), below it gives 0 (no).

Answered examples (5):
OCC(O)CN1CCN(c2ccccc2)CC1 (racemic) [Dropropizine (R,S)] ... 1 (yes)
C=C[C@H]1CN2CC[C@H]1C[C@@H]2[C@@H](O)c1ccnc2ccc(OC)cc12.Cl.O [Quinidine hydrochloride monohydrate] ... 1 (yes)
Fc1ccc(C(c2ccc(F)cc2)N2CCN(C/C=C/c3ccccc3)CC2)cc1 [Flunarizine dihydrochloride] ... 1 (yes)
C[C@H](N[C@@H](CCc1ccccc1)C(=O)O)C(=O)N1CCC[C@H]1C(=O)O.O.O [Enalaprilat dihydrate] ... 1 (yes)
Cc1nccn1CC1CCc2c(c3ccccc3n2C)C1=O.Cl (stereo not shown) [Ondansetron Hydrochloride] ... 1 (yes)

Request: Say whether NCCCNCCSP(=O)(O)O [Amifostine] shows B-score binding assay of -0.03 or more.
Result: 1 (yes)

Request: Then CC(=O)O[C@]1(C(C)=O)CC[C@H]2[C@@H]3C=C(Cl)C4=CC(=O)[C@@H]5C[C@@H]5[C@]4(C)[C@H]3CC[C@@]21C [Cyproterone acetate] ?
Result: 1 (yes)

Request: Quick one: Cl.NC1CCN(c2nc3c(cc2F)c(=O)c(C(=O)O)cn3-c2ccc(F)cc2F)C1 (stereo not shown) [Tosufloxacin hydrochloride]
Result: 1 (yes)

Request: Now the compound COc1cc(OC)c(C(=O)CCCN2CCCC2)c(OC)c1.Cl [Buflomedil hydrochloride]
Result: 0 (no)

Request: Record: CC1(C)O[C@@H]2[C@@H](CO[C@@]3(COS(N)(=O)=O)OC(C)(C)O[C@@H]23)O1 [Topiramate]
Result: 0 (no)

Request: One more compound: O=C(NCCN1CCOCC1)c1ccc(Cl)cc1 [Moclobemide]
Result: 0 (no)

Request: Same for CCOc1ccccc1OC(c1ccccc1)C1CNCCO1.CS(=O)(=O)O (stereo not shown) [Reboxetine mesylate]
Result: 1 (yes)

Request: Same again, this time with CCOC(=O)[C@H](CCc1ccccc1)N[C@@H](C)C(=O)N1CCC[C@H]1C(=O)O [Enalapril maleate]
Result: 1 (yes)

Request: Subsequent entry: CC(=O)OC[C@H]1O[C@@H]([S-])[C@H](OC(C)=O)[C@@H](OC(C)=O)[C@@H]1OC(C)=O.CCP(CC)CC.[Au+] [Auranofin]
Result: 0 (no)

Request: One more compound: C[N+]1(C)CCC(OC(=O)C(O)(c2ccccc2)C2CCCC2)C1 (stereo not shown) [Glycopyrrolate]
Result: 1 (yes)

Request: What would you report for COCCCOc1ccnc(C[S+]([O-])c2nc3ccccc3[nH]2)c1C (stereo not shown) [Rabeprazole Sodium salt] ?
Result: 0 (no)

----------
Here the recorded B-score functional assay is given for each entry.
Target: human NTCP (Homo sapiens, UniProt Q14973)
Assay: Screening taurocholate uptake assay (96-well, [14C]taurocholate, 10 µM drug)
Settings: screen, 10 µM drug, taurocholate uptake

Reference set (8 entries):
CC1=NS(=O)(=O)c2cc(Cl)ccc2N1 [Diazoxide] ... -1.121
CC(=O)O[C@]1(C(C)=O)CC[C@H]2[C@@H]3C=C(C)C4=CC(=O)CC[C@@H]4[C@H]3CC[C@@]21C [Nomegestrol acetate] ... -2.71
COc1cc(C)c(/C=C/C(C)=C/C=C/C(C)=C/C(=O)O)c(C)c1C [Acitretin] ... 0.046
CCCCNC(=O)NS(=O)(=O)c1ccc(C)cc1 [Tolbutamide] ... 0.082
Nc1ccc(C(=O)O)c(O)c1 [4-aminosalicylic acid] ... -0.405
N=C(N)NCC1COC2(CCCCC2)O1.N=C(N)NCC1COC2(CCCCC2)O1.O=S(=O)(O)O (stereo not drawn) [Guanadrel sulfate] ... -2.033
CC[C@H](C)C(=O)O[C@H]1CCC=C2C=C[C@H](C)[C@H](CC[C@@H]3C[C@@H](O)CC(=O)O3)[C@H]21 [Mevastatin] ... -2.175
CC(=O)Oc1cc(C(F)(F)F)ccc1C(=O)O [Triflusal] ... -0.747

Request: Bench note: what B-score functional assay did COC(=O)Nc1nc2ccc(C(=O)c3ccccc3)cc2[nH]1 [Mebendazole] show?
Result: -0.824
